target: Signal transducer and activator of transcription 3 (Homo sapiens) (UniProt P40763); assay: blockers of STAT3 signaling, concentration series – cell-based, dose response (AID 1399); settings: human cell STAT3 reporter inhibition
Activity calls are given as the source filed them. Cut-off not given; nearly all actives show IC50 up to about 8.9 µM.
Returns: one label drawn from active, inactive

Reference set, count: 3
compound.structure.string	label.class
c1ccc(CC2CCN(c3ncnc4sccc34)CC2)cc1	active
COc1cccc(-c2cc(C(=O)Nc3cccc(O)c3)no2)c1	active
O=C(Nc1ccc(Oc2ccccc2)cc1)c1cnc2n(c1=O)CCS2	active

*Q* I'd appreciate the recorded outcome for Nc1c(C(=O)NC2CCCCC2)nsc1C(=O)OCC(=O)NC1CCCCC1 from this test.
*A* active

*Q* Fill in: this test's call for Cc1cc(OCC(=O)Nc2ccncc2)ccc1Br is ___
*A* active

*Q* Dear all, I need the recorded test outcome for COc1ccc(/C=N/NC(=S)Nc2ccccc2[N+](=O)[O-])cc1O , thank you.
*A* active

*Q* Assay outcome for Cc1nc(CNS(=O)(=O)c2ccc(Oc3ccccc3)cc2)cs1 : what was it?
*A* active

*Q* Field: outcome | Entry: COc1ccccc1OCC(=O)c1[nH]c(C)c(C(C)=O)c1C
*A* active

*Q* What did this assay record as the result for O=C(Nc1ccc(N2CCN(C(=O)c3ccco3)CC2)c(Cl)c1)c1cc2ccccc2o1 ?
*A* active

*Q* So what was the verdict on CCCNC(=O)c1ccc(-c2nc3ccccc3s2)s1 in this test?
*A* active

*Q* Kindly provide the recorded test outcome for the following molecule: C[C@H]1O[C@@H](O[C@H]2[C@@H](O)C[C@H](O[C@H]3[C@@H](O)C[C@H](O[C@H]4CC[C@@]5(C)[C@H](CC[C@@H]6[C@@H]5CC[C@]5(C)[C@@H](C7=CC(=O)OC7)CC[C@]65O)C4)O[C@@H]3C)O[C@@H]2C)C[C@H](O)[C@@H]1O
*A* active

*Q* Entry CCCOc1ccc(CSc2nc3ccccc3[nH]2)cc1 : call = ?
*A* active

*Q* Identify the outcome logged in this assay for the molecule shown: Cc1cc(C)n(Cc2ccc(NC(=O)c3ccc(COc4ccccc4Br)cc3)cc2)n1
*A* active

*Q* What outcome does the record of this test show for Cc1nn2cc(-c3ncc(C(F)(F)F)cc3Cl)cnc2c1Br ?
*A* inactive

*Q* # fetch the recorded call for O=S(=O)(c1ccc2c(c1)OCCO2)N1CCC(c2nc3ccccc3s2)CC1 here
*A* active

*Q* What did this assay record as the result for CCOc1cc(C(=S)N2CCOCC2)ccc1OS(=O)(=O)c1ccc(NC(C)=O)cc1 ?
*A* active

*Q* For C[C@@H]1O[C@@H](O[C@H]2C[C@@H](O)[C@]3(CO)[C@H]4[C@H](O)C[C@]5(C)[C@@H](C6=CC(=O)OC6)CC[C@]5(O)[C@@H]4CC[C@]3(O)C2)[C@H](O)[C@H](O)[C@H]1O , which call appears in the assay record?
*A* active

*Q* Hi, sorry to bother you, what did the test record for COc1ccc(C(=O)Nc2ccc3oc(Cc4ccc(Cl)cc4)nc3c2)cc1OC ?
*A* active

*Q* For COC(=O)Oc1ccc(/C=N/NC(=O)CSCc2ccccc2Br)cc1OC , what call appears in the results of this test?
*A* active
